# procedure summary: Tanguay_ZF_120hpf_MORT_legacy: (Legacy) Oregon State University Tanguay Lab 120 Hour Post-fertilization zebrafish Assay for Mortality (AID 2283633)
Calls of active or inactive are those of the source. The calls were made as follows: active = hit-call score of the fitted dose curve at least 0.9, where 1 is the maximum; inconclusive = response in the unintended direction; inactive = score below 0.9.
observed property: outcome

Solved cases below.
COP(=O)(NC(C)=O)SC (configuration not stated)
inactive
Nc1nc(N)nc(NC2CC2)n1
inactive
CCOP(=S)(OCC)Oc1ccc([N+](=O)[O-])cc1
inactive
CNC(=O)ON=C(SC)C(=O)N(C)C
inactive
CSc1nnc(C(C)(C)C)c(=O)n1N
inactive
CCOP(=O)(NC(C)C)Oc1ccc(SC)c(C)c1 (configuration not stated)
inactive

The record that follows has no outcome shown yet.
Field outcome (entry CC(COc1ccc(Oc2ccccc2)cc1)Oc1ccccn1 (configuration not stated) ) reads inactive

====

# tgt: rat Peripheral-type Benzodiazepine Receptor (PBR), Tspo (gene 24230)
# procedure summary: NVS_MP_rPBR: NovaScreen (NVS) Membrane Protein Assay for rat Peripheral-type Benzodiazepine Receptor (PBR) (AID 2283335)
Records with an inconclusive call do not appear. Calls of active or inactive are those of the source. Rule for the calls: active = hit-call score of the fitted dose curve at least 0.9, where 1 is the maximum; inconclusive = response in the unintended direction; inactive = score below 0.9.
observed property: AC50

Solved cases below.
CCC(=O)Nc1ccc(Cl)c(Cl)c1
9.5 µM (active)
CCOP(=S)(OCC)SCCSCC
17.9 µM (active)
CCC(CC)Nc1c([N+](=O)[O-])cc(C)c(C)c1[N+](=O)[O-]
inactive
CCCSP(=O)(OCC)SCCC
11.5 µM (active)
C[N+]1(C)CCCCC1
inactive

// AC50 (rat Peripheral-type Benzodiazepine Receptor (PBR), Tspo (gene 24230)) for CCc1cccc(C)c1N(C(=O)CCl)C(C)COC (centres undefined) = 8.9 µM (active)

// AC50 (rat Peripheral-type Benzodiazepine Receptor (PBR), Tspo (gene 24230)) for CCCSP(=O)(OCC)Oc1ccc(Br)cc1Cl (centres undefined) = 0.28 µM (active)

// AC50 (rat Peripheral-type Benzodiazepine Receptor (PBR), Tspo (gene 24230)) for CCCCSP(=O)(SCCCC)SCCCC = 3.75 µM (active)

// AC50 (rat Peripheral-type Benzodiazepine Receptor (PBR), Tspo (gene 24230)) for CCOP(=S)(OCC)Oc1ccc([N+](=O)[O-])cc1 = 3.61 µM (active)

// AC50 (rat Peripheral-type Benzodiazepine Receptor (PBR), Tspo (gene 24230)) for Cc1cc(C2CC2)nc(Nc2ccccc2)n1 = 7.55 µM (active)

// AC50 (rat Peripheral-type Benzodiazepine Receptor (PBR), Tspo (gene 24230)) for CON=C(C(=O)OC)c1ccccc1CON=C(C)c1cccc(C(F)(F)F)c1 = 0.612 µM (active)

// AC50 (rat Peripheral-type Benzodiazepine Receptor (PBR), Tspo (gene 24230)) for CN(C)[C@@H]1C(=O)C(C(N)=O)=C(O)[C@@]2(O)C(=O)C3=C(O)c4c(O)cccc4[C@@](C)(O)[C@H]3[C@H](O)[C@@H]12 = inactive

// AC50 (rat Peripheral-type Benzodiazepine Receptor (PBR), Tspo (gene 24230)) for C#CCC1=C(C)C(OC(=O)C2C(C=C(C)C)C2(C)C)CC1=O (centres undefined) = 20 µM (active)

// AC50 (rat Peripheral-type Benzodiazepine Receptor (PBR), Tspo (gene 24230)) for CCCCN(CC)c1c([N+](=O)[O-])cc(C(F)(F)F)cc1[N+](=O)[O-] = inactive

// AC50 (rat Peripheral-type Benzodiazepine Receptor (PBR), Tspo (gene 24230)) for COc1ccc(C(=CC(=O)N2CCOCC2)c2ccc(Cl)cc2)cc1OC = inactive

Values were extracted from PubChem BioAssay (EPA / NIEHS).
